# assayed_target: human glucagon receptor (human) (UniProt P47871)
# Sequence (P47871 26-477): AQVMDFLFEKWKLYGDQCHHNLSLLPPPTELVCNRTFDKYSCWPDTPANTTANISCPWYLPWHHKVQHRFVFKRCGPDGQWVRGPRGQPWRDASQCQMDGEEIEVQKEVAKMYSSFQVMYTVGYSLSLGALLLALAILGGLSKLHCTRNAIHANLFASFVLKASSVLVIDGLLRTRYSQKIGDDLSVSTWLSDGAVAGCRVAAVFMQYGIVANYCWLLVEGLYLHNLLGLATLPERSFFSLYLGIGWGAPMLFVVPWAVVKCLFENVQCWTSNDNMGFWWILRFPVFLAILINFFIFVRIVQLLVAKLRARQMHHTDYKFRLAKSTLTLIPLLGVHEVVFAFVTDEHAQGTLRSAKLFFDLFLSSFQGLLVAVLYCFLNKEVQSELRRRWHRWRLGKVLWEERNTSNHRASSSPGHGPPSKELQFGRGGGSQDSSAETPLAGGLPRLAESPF
# assay_details: cell-based or functional assay
Starred links: 1 amine or outer side, 2 acyl side, 3 side chain; linkers in the order of their positions; H or OH if unused. Non-standard residues stand in square brackets, D forms with d. Groups on a side chain read outwards from the residue. No end group written: not given here. *: point of attachment. C20 diacid = O=C(O)CCCCCCCCCCCCCCCCCCC(=O)*; Phe(4-CN) = N#Cc1ccc(C[C@H](N)C(=O)O)cc1; αMePhe(2-F) = C[C@](N)(Cc1ccccc1F)C(=O)O; γGlu = O=C(O)[C@H](CCC(=O)[*:2])N[*:1]; αMeL = CC(C)C[C@](C)(N)C(=O)O; AEEA = NCCOCCOCC(=O)O; Aib = CC(C)(N)C(=O)O
reported_metric: Relative cAMP EC50 (nM)
Give the number; nM is assumed, so skip it.

Here is how some binders turned out for Relative cAMP EC50.
YXQGTFTSDXSQXLDXKAQXQFIEXLIEXGPSSGAPPPSGSEE (non-natural residues; lipidated Lys; C-terminal amide; synthetic construct; SITE 2: note = 2-Aminoisobutyric Acid; SITE 10: note = 3-(4-Pyridyl)-L-alanine; SITE 13: note = alpha-methyl-leucine; SITE 16: note = L-ornithine; SITE 17: note = Lysine is chemically modified through conjugation of the epsilon-amino group of the Lysine side chain with D-Glutami) [Example 1113] | 14.4
YXQGTFTSDXSQXLDXKAQXQFIEXLLAGGPSSGAPPPSGSEEE (not fully specified; Lys acylated γGlu-C18 diacid; non-natural residues; C-terminal amide; synthetic construct; SITE 2: note = 2-Aminoisobutyric Acid; SITE 10: note = 3-(4-Pyridyl)-L-alanine; SITE 13: note = alpha-methyl-leucine; SITE 16: note = L-ornithine; SITE 17: note = Lysine is chemically modified through conjugation of the epsilon-amino group of the Lysine side chain with D-Glutami) [Example 1084] | 11.5
YXQGTXTSDXSIXLDXKAQXEFIEXLAEGGPSSGAPPPSGS (non-natural residues; acylated Lys; C-terminal amide; synthetic construct; SITE 2: note = 2-Aminoisobutyric Acid; SITE 6: note = alpha-methyl-2-fluoro-L-phenylalanine; SITE 10: note = 3-(4-Pyridyl)-L-alanine; SITE 13: note = alpha-methyl-leucine; SITE 16: note = L-ornithine; SITE 17: note = Lysine is chemically modified through conjugation of the epsil) [Example 642] | 3.49
YXQGTXTSDYSILLDKKAQXAFIEYLEEGGPSSGAPPPS (synthetic construct; SITE 2: note = 2-Aminoisobutyric Acid; SITE 6: note = alpha-methyl-2-fluoro-L-phenylalanine; SITE 17: note = Lysine is chemically modified through conjugation of the epsilon-amino group of the Lysine side chain with (gamma-Glu)2-CO-(CH2)16-CO2H; SITE 20: note = 2-Aminoisobutyric) [Example 406] | 1.23
YXQGTXTSDXXILLDXKAQXXFIEYLIEGGPSSGEPPPEGSEE (non-natural residues, acylated Lys ((γGlu)2-C18 diacid), C-terminal amide; synthetic construct; SITE 2: note = 2-Aminoisobutyric Acid; SITE 6: note = alpha-methyl-2-fluoro-L-phenylalanine; SITE 10: note = 3-(4-Pyridyl)-L-alanine; SITE 11: note = alpha-methyl-L-serine; SITE 16: note = L-ornithine; SITE 17: note = Lysine is chemically modified through conjugation of the epsi) [Example 603] | 5.43

[ask] Provide Relative cAMP EC50 value for the following binder: YXQGTFTSDFSXXLDKKAQXAFIEYLLEXGXSSGAPPPSGS (Aib, Orn, αMeL, 4Pal; AEEA-γGlu-C18 diacid on Lys; amide; synthetic construct; SITE 2: note = 2-Aminoisobutyric Acid; SITE 12: note = L-ornithine; SITE 13: note = alpha-methyl-leucine; SITE 17: note = Lysine is chemically modified through conjugation of the epsilon-amino group of the Lysine side chain with (2-[2-(2-Amino-ethoxy)-ethoxy]-acetyl)-(gamma-Glu)) [Example 242]
[reply] 3.5

[ask] Provide Relative cAMP EC50 value for the following binder: YXQGTFTSDFSKXLDKKAQXAFIEYLLAGGPSSGAPPPSGS (non-natural residues, acyl lysine, C-terminal amide; synthetic construct; SITE 2: note = 2-Aminoisobutyric Acid; SITE 13: note = alpha-methyl-leucine; SITE 17: note = Lysine is chemically modified through conjugation of the epsilon-amino group of the Lysine side chain with (2-[2-(2-Amino-ethoxy)-ethoxy]-acetyl)-(gamma-Glu)-CO-(CH2) 18-CO2H; SITE 20: n) [Example 14]
[reply] 7.23

[ask] Provide Relative cAMP EC50 value for the following binder: YXQGTXTSDXXIXLDXKAQXEFIEXLVEGGPSSGEPPPSGE (synthetic construct; SITE 2: note = 2-Aminoisobutyric Acid; SITE 6: note = alpha-methyl-2-fluoro-L-phenylalanine; SITE 10: note = 3-(4-Pyridyl)-L-alanine; SITE 11: note = alpha-methyl-L-serine; SITE 13: note = alpha-methyl-leucine; SITE 16: note = L-ornithine; SITE 17: note = Lysine is chemically mo) [Example 750]
[reply] 2

[ask] Provide Relative cAMP EC50 value for the following binder: YXQGTFTSDXSQXLDXKAQXAFIEYLIAXGPSSGAPPPSGSEE (non-natural residues; acylated Lys C18 diacid; C-term amide; synthetic construct; SITE 2: note = 2-Aminoisobutyric Acid; SITE 10: note = 3-(4-Pyridyl)-L-alanine; SITE 13: note = alpha-methyl-leucine; SITE 16: note = L-ornithine; SITE 17: note = Lysine is chemically modified through conjugation of the epsilon-amino group of the Lysine side chain with (gamma-Gl)) [Example 1091]
[reply] 4.67

[ask] Provide Relative cAMP EC50 value for the following binder: YXQGTXTSDXSIXLDKKAQXXFIEYLSEGGPSSGEPPPEGSEE (synthetic construct; SITE 2: note = 2-Aminoisobutyric Acid; SITE 6: note = alpha-methyl-2-fluoro-L-phenylalanine; SITE 10: note = 3-(4-Pyridyl)-L-alanine; SITE 13: note = alpha-methyl-leucine; SITE 17: note = Lysine is chemically modified through conjugation of the epsilon-amino group of the Lysine) [Example 651 (SEQ ID NO: 657)]
[reply] 10.7

[ask] Provide Relative cAMP EC50 value for the following binder: YXQGTFTSDFSXXLDKKAQXAFIEYLLEAGPSSGEPPPSEG (synthetic construct; SITE 2: note = 2-Aminoisobutyric Acid; SITE 12: note = L-ornithine; SITE 13: note = alpha-methyl-leucine; SITE 17: note = Lysine is chemically modified through conjugation of the epsilon-amino group of the Lysine side chain with (2-[2-(2-Amino-ethoxy)-ethoxy]-acetyl)2-(gamma-Glu)) [Example 116]
[reply] 3.96

[ask] Provide Relative cAMP EC50 value for the following binder: Y[Aib]QGT[αMePhe(2-F)]TSD[Phe(4-CN)]SILLDKQAQKAFIQYLLEGGPSSGEPPPSEG-NH2 (not fully specified (residue 20)) [Example 353]
[reply] 11

[ask] Provide Relative cAMP EC50 value for the following binder: YXQGTXTSDXXIXLDXKAAXEFIEXLIEGGPSSGEPPPSGS (synthetic construct; SITE 2: note = 2-Aminoisobutyric Acid; SITE 6: note = alpha-methyl-2-fluoro-L-phenylalanine; SITE 10: note = 3-(4-Pyridyl)-L-alanine; SITE 11: note = alpha-methyl-L-serine; SITE 13: note = alpha-methyl-leucine; SITE 16: note = L-ornithine; SITE 17: note = Lysine is chemically mo) [Example 707]
[reply] 1.06

[ask] Provide Relative cAMP EC50 value for the following binder: Y[Aib]QGTFTSDYSI[αMeL]LDKQAAK([AEEA-AEEA-γGlu-C20 diacid])QFVEWLLA[Aib]GPSSGAPPPSEG-NH2 [Example 327]
[reply] 3.04

[ask] Provide Relative cAMP EC50 value for the following binder: YXQGTFTSDFSXXLDKKAQXAFIEWLLEGGPSSGAPPPSGS (synthetic construct; SITE 2: note = 2-Aminoisobutyric Acid; SITE 12: note = L-ornithine; SITE 13: note = alpha-methyl-leucine; SITE 17: note = Lysine is chemically modified through conjugation of the epsilon-amino group of the Lysine side chain with (2-[2-(2-Amino-ethoxy)-ethoxy]-acetyl)-(gamma-Glu)) [Example 78]
[reply] 7.06

[ask] Provide Relative cAMP EC50 value for the following binder: YXQGTFTSDXSKXLDKKAQXAFIEYLIAXGESSGEPPPSGE (synthetic construct; SITE 2: note = 2-Aminoisobutyric Acid; SITE 10: note = 3-(4-Pyridyl)-L-alanine; SITE 13: note = alpha-methyl-leucine; SITE 17: note = Lysine is chemically modified through conjugation of the epsilon-amino group of the Lysine side chain with (2-[2-(2-Amino-ethoxy)-ethoxy]-acetyl)) [Example 286]
[reply] 2.2

[ask] Provide Relative cAMP EC50 value for the following binder: YXQGTXTSDXXIXLDXKAQXEFIEXLIEGGPSSGAPPPSGE (non-natural residues; acylated Lys; C-terminal amide; synthetic construct; SITE 2: note = 2-Aminoisobutyric Acid; SITE 6: note = alpha-methyl-L-phenylalanine; SITE 10: note = 3-(4-Pyridyl)-L-alanine; SITE 11: note = alpha-methyl-L-serine; SITE 13: note = alpha-methyl-leucine; SITE 16: note = L-ornithine; SITE 17: note = Lysine is chemically modified th) [Example 1170]
[reply] 2.43

[ask] Provide Relative cAMP EC50 value for the following binder: YXQGTXTSDXXIXLDXXAQXEFIEXLIEGGPSSGAPPPSGGGE (synthetic construct; SITE 2: note = 2-Aminoisobutyric Acid; SITE 6: note = alpha-methyl-2-fluoro-L-phenylalanine; SITE 10: note = 3-(4-Pyridyl)-L-alanine; SITE 11: note = alpha-methyl-L-serine; SITE 13: note = alpha-methyl-leucine; SITE 16: note = L-ornithine; SITE 17: note = Ornithine is chemically) [Example 1213]
[reply] 1.69

[ask] Provide Relative cAMP EC50 value for the following binder: Y[Aib]QGT[αMePhe(2-F)]TSDYSILLDAKAFIEYLEEGGPSSGAPPPSEG-NH2 (not fully specified (residue 17)) [Example 410]
[reply] 9.94

[ask] Provide Relative cAMP EC50 value for the following binder: YXQGTFTSDFSXXLDKKAQXAFIEYLLEGGPSSGXPPPGGS (not fully specified; synthetic construct; SITE 2: note = 2-Aminoisobutyric Acid; SITE 12: note = L-ornithine; SITE 13: note = alpha-methyl-leucine; SITE 17: note = Lysine is chemically modified through conjugation of the epsilon-amino group of the Lysine side chain with (gamma-Glu)2-CO-(CH2)16-CO2H; SITE 20: note = 2-Am) [Example 771]
[reply] 5.05

[ask] Provide Relative cAMP EC50 value for the following binder: YXQGTXTSDXSILLDKKAQXAFIEYLEEGGPSSGAPPPSGEEE (non-natural residues; Lys acylated C18 diacid; C-terminal amide; synthetic construct; SITE 2: note = 2-Aminoisobutyric Acid; SITE 6: note = alpha-methyl-2-fluoro-L-phenylalanine; SITE 10: note = 3-(4-Pyridyl)-L-alanine; SITE 17: note = Lysine is chemically modified through conjugation of the epsilon-amino group of the Lysine side chain with (gamma-Glu)2-CO-(CH2)1) [Example 611]
[reply] 6.8

[ask] Provide Relative cAMP EC50 value for the following binder: YXQGTFTSDXSQXLDKKAQXAFIEYLIAGGPSSGEPPPSGS (synthetic construct; SITE 2: note = 2-Aminoisobutyric Acid; SITE 10: note = 3-(4-Pyridyl)-L-alanine; SITE 13: note = alpha-methyl-leucine; SITE 17: note = Lysine is chemically modified through conjugation of the epsilon-amino group of the Lysine side chain with (gamma-Glu)2-CO-(CH2)16-CO2H; SITE 20:) [Example 968]
[reply] 4.72

[ask] Provide Relative cAMP EC50 value for the following binder: YXQGTFTSDFSXXLDKKAQXAFIEYLLEAGPSSGAPPPSGX (non-natural residues, acylated Lys, C-terminal amide; synthetic construct; SITE 2: note = 2-Aminoisobutyric Acid; SITE 12: note = L-ornithine; SITE 13: note = alpha-methyl-leucine; SITE 17: note = Lysine is chemically modified through conjugation of the epsilon-amino group of the Lysine side chain with (2-[2-(2-Amino-ethoxy)-ethoxy]-acetyl)-(gamma-Glu)) [Example 211]
[reply] 2.05
